Published pIC50 for the protein given by its sequence, assembled from different documents, is shown next.
Protein target, amino acids: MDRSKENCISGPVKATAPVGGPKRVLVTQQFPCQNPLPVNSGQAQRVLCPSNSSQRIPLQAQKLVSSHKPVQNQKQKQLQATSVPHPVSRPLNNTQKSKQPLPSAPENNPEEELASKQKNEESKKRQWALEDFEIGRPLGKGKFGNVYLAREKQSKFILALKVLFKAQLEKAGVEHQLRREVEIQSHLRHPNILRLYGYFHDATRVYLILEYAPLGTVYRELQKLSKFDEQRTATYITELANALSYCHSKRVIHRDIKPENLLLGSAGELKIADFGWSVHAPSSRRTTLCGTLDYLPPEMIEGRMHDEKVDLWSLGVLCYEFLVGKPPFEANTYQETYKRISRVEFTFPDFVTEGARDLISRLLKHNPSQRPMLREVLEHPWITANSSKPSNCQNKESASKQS
pIC50: −log10 of the molar value.
Measure: pIC50

Solved cases (3 shown):
CCOC(=O)c1csc2cc(Nc3ncnc4cc(OCCCN(CC)CC)ccc34)ccc12    6.10
CCOC(=O)c1csc2cc(Nc3ncnc4cc(OCCCN5CCN(C)CC5)ccc34)ccc12    6.95
CN1CCN(C(=O)c2ccc(Nc3ncc4c(n3)N(C)c3ccccc3C(=O)N4C)cc2C(F)(F)F)CC1    8.05

(a) CCN(CC)CCCOc1ccc2c(Nc3ccc(C)c(Nc4ncc(-c5cccnc5)cn4)c3)ncnc2c1
(b) CCOC(=O)c1csc2cc(Nc3ncnc4cc(OCCCN5CCCCC5)ccc34)ccc12
(c) CN1C(=O)c2ccccc2N(C)c2nc(Nc3ccc(N4CCC(O)CC4)cc3)ncc21
Rank ascending by pIC50. In your reply, arrange the labels in the requested order.
b, a, c
(b: 6.09, a: 7.01, c: 8.10)
